study system: dynein light chain LC8 (UniProt P63167 1-89)
Sequence (P63167 whole entry): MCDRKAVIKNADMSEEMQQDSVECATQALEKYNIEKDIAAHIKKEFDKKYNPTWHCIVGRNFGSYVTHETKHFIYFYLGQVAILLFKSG
assay text: ITC
measured quantity: pKd
Note on pKd: it is the negative log10 of concentration, concentration in mol/L.

PVLTSATGTQTSPA [MUC3A peptide]; 5.35
PRATAEFSTQTPSP [bassoon (BSN) peptide, modified version with the TQT motif near the C-terminus]; 5.20

Q: Which pKd value belongs to APMSCDKSTQTPSP [BCL2L11 peptide] ?
Ans: 6.70

Q: Further, for DDHSREKGTQTSGD [SLC9A2 peptide] ?
Ans: 5.66

Q: Further, for SSSTRSIDTQTPSV [GLCCI1 peptide] ?
Ans: 5.31

Q: Further, for ARAGRSVSTQTGSM [CIZ1 peptide] ?
Ans: 6.10
